What pEC50 was measured for each of the following?
- system-name: soluble guanylate cyclase (human GUCYA3 and GUCYB3) overexpressed in CHO cells (Homo sapiens (Human), UniProt Q02108+Q02153)
- Sequence (Q02108 whole entry partner): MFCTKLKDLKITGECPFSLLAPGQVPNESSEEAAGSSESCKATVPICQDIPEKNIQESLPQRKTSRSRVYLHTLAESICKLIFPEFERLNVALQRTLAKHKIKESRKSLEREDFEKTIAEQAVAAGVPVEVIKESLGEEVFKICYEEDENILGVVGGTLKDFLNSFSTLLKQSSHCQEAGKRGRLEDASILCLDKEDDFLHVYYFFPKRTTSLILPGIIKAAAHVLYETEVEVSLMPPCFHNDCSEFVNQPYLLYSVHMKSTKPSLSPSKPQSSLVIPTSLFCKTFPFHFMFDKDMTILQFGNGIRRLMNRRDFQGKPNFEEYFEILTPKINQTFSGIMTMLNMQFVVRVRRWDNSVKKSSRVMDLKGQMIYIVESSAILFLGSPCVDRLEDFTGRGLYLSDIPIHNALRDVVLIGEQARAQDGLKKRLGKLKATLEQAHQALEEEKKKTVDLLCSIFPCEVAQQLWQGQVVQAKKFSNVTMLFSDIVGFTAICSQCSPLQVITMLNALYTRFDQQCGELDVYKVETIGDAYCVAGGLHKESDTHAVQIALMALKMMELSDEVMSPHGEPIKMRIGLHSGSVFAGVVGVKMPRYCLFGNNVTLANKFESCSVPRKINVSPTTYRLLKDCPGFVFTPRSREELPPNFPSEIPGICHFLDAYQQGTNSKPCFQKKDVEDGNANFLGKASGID
- Sequence (Q02153 whole entry): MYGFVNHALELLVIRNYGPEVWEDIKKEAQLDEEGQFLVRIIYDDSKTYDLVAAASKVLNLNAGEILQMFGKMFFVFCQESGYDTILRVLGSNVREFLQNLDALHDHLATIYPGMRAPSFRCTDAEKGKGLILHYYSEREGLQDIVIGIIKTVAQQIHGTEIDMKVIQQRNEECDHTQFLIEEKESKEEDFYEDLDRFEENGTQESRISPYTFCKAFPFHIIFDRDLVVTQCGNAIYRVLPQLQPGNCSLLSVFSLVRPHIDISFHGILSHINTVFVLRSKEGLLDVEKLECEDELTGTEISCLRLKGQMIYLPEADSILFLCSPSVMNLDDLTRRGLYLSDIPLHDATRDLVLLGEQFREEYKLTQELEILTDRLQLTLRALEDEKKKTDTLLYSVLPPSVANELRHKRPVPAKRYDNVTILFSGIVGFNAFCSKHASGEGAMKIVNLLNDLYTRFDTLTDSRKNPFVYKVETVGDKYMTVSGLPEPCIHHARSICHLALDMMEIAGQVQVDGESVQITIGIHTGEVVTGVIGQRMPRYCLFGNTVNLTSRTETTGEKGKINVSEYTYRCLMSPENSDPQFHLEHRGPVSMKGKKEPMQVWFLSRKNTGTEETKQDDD
- method-summary: CHO cellular assay (cGMP production, Cisbio cGMP HTRF kit)
- Assay type: cell-based
- experimental-parameters: CHO GUCY clone 8E10, cGMP production, assay buffer with 1 mM IBMX and 20 uM ODQ, 1 h room temperature; minimum quantification limit 0.5 nM (listed 0.5 nM means ≤0.5 nM); read-out: EC50
In plain terms, pEC50 is the concentration in mol/L turned into minus its base-10 logarithm.

query: Quick one: pEC50 of Cc1cc(C2CCN(C3CC3)CC2)ccc1NC1CCc2cccc(-c3cccc(-n4ncc(C(=O)O)c4C)n3)c21 (racemic) ?
result: 8.28

query: Quick one: pEC50 of CCc1cc(CC2CCc3cccc(-c4cccc(-n5ncc(C(=O)O)c5C)n4)c32)ccc1C1CCN(C(=O)C2CC2)CC1 (single isomer, unassigned; (-)) [38-2 (−)] ?
result: 8.05

query: Quick one: pEC50 of Cc1cc(C2CCN(C(=O)C3CC3)CC2)ccc1O[C@H]1CCc2cccc(-c3cccc(-n4ncc(C(=O)O)c4C)c3)c21 ?
result: 9.00

query: Quick one: pEC50 of Cc1cc(C2CCN(C(=O)[C@H](C)O)CC2)ccc1NC1CCc2cccc(-c3cccc(-n4ncc(C(=O)O)c4C)n3)c21 (single isomer, unassigned; (-)) [Example 47b] ?
result: 7.57
